Below: a set of entries, each annotated with reported growth inhibition.
Assay: NCI Yeast Anticancer Drug Screen. Data for the mlh1 rad18 strain (AID 175)
Details: S. cerevisiae mlh1 rad18 strain growth inhibition; at 50.0 µM; hits give high values
This is part of a sample that, as a whole, favours compounds with a hit. Of some 79,000 tested, about 15% had one in any assay. Active and inactive are the calls of the source. Cut-off read from the data, not from the text of the source: active = growth inhibition above about 70%; inactive = the rest.

- compound: "CCc1cnc2ccccc2c1/C=C/c1ccc(N(C)C)cc1"
  growth inhibition: "94.7% (active)"

Requested field: growth inhibition. Item: `CCCCCCCCCCCCCCCCCC1=NCCCN1CCO`
83% (active)

# repeat for CC1(C)CCC2(C(=O)O)C(O)CC3(C)C(=CCC4C5(C)CCC(OC6OCC(O)C(O)C6OC6OCC(O)C(O)C6OC6OCC(O)C(OC7OC(CO)C(O)C(O)C7O)C6O)C(C)(C)C5CCC43C)C2C1 (stereo not given)
-30.2% (inactive)

# repeat for `CC1=CC[C@@H]2[C@@H](CC[C@@]2(C)O)C(C)(C)[C@H]1CC[C@@H]1[C@@]2(C)CC[C@@H](O)C(C)(C)O[C@@H]2CC[C@]1(C)O`
12.6% (inactive)
